target: Human MIF (MIF tautomerase) (Homo sapiens, UniProt P14174); construct: purchased ProSpec; assay: MIF Tautomerase Inhibitory Assay with L-Dopachrome Methyl Ester; assay type: biochemical; details: relative potency class, MIF tautomerase inhibition; L-dopachrome methyl ester substrate, pH 7.34, no pre-incubation; read-out: IC50
Sequence (P14174 2-115 limits assumed): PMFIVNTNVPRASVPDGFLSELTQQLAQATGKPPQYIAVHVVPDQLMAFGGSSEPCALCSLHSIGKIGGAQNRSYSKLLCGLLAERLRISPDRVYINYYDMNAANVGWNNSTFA
The reader will find reported IC50 values listed item by item below.

[
  {
    "COMPOUND": "CC(C)[C@@H](CO)NC(C)[C@H]1CC[C@H](CN2Cc3ccc(O)cc3C2=O)CC1 (stereo partly drawn) [drawing 150]",
    "IC50": "1000 to 5000 nM"
  },
  {
    "COMPOUND": "CNC(=O)[C@H](Cc1ccccc1)NC(C)C1CCC(CN2Cc3ccc(O)c(F)c3C2=O)CC1 (stereo partly drawn) [drawing 100]",
    "IC50": "< 1000 nM"
  },
  {
    "COMPOUND": "O=C1c2cc(O)ccc2CN1C[C@H]1CC[C@H](C(O)CCC2CCCCC2)CC1 (stereo partly drawn)",
    "IC50": "< 1000 nM"
  },
  {
    "COMPOUND": "CC(=O)NC(C)[C@H]1CC[C@H](CN2Cc3ccc(O)c(F)c3C2=O)CC1 (stereo partly drawn)",
    "IC50": "< 1000 nM"
  },
  {
    "COMPOUND": "C[C@@H](O)[C@H]1CC[C@H](CN2Cc3ccc(O)c(F)c3C2=O)CC1",
    "IC50": "< 1000 nM"
  },
  {
    "COMPOUND": "CCC(C(=O)OC(C)[C@H]1CC[C@H](CN2Cc3cc(F)c(O)cc3C2=O)CC1)c1ccccc1 (stereo partly drawn)",
    "IC50": "< 1000 nM"
  },
  {
    "COMPOUND": "O=C(OC1CCCCC1)c1ccc(CCN2Cc3ccc(O)cc3C2=O)cc1",
    "IC50": "1000 to 5000 nM"
  },
  {
    "COMPOUND": "CC(Oc1cccc(F)c1)[C@H]1CC[C@H](CN2Cc3cc(F)c(O)cc3C2=O)CC1 (stereo partly drawn)",
    "IC50": "< 1000 nM"
  },
  {
    "COMPOUND": "O=C1c2cc(O)ccc2CN1CCc1cccc(F)c1",
    "IC50": "5000 to 10000 nM"
  }
]
